The reader will find reported self-cleavage kobs at 40 uM GlcN6P values listed item by item below.
B1: glmS ribozyme (parent)
chain: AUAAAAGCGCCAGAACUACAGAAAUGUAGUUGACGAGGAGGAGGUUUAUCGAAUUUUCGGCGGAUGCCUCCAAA

# Variants of: B1
# Test Method Notes: self-cleavage kobs at 40 uM GlcN6P; higher = faster cleavage; RNA array
# Test Conditions: with glucosamine-6-phosphate
This sample holds only a part of the variants without activity.

Solved entries:
Mutation Id	Result
U45G U55A	0.000186 s⁻¹
C11U U56A C70U	3.04e-05 s⁻¹
C10G C61U	< 1e-05 s⁻¹
A48U C50U A52C G63C C71U	< 1e-05 s⁻¹
A42G G63U	< 1e-05 s⁻¹

Bench note: what self-cleavage kobs at 40 uM GlcN6P did A12U A14G show?
0.00336 s⁻¹

What do we get for A14G U54A G59A ?
< 1e-05 s⁻¹

What do we get for G29U U54G C58U U69G ?
6.42e-05 s⁻¹

What do we get for G9U G40C ?
< 1e-05 s⁻¹

What do we get for C67U U69A ?
< 1e-05 s⁻¹

What do we get for G29C G32C U57G ?
< 1e-05 s⁻¹
